Where do the numbers come from? From the Immune Epitope Database (IEDB).

Molecular target: HLA-B*53:01
Assay: IEDB peptide-MHC binding, purified MHC/competitive/radioactivity; filed as Kd, often an IC50 or EC50 that approximates it; bounds were set here for any values at or beyond the usual limits of such assays
Conditions: source organism: Vaccinia virus WR
pKd: −log10 of the molar value.
Each entry below carries its recorded pKd.
OBSERVABLE: pKd

{"CHAIN SEQUENCE": "FPGLYGASI", "QUALIFIER SYMBOL": "=", "REPORTED": 8.04}
{"CHAIN SEQUENCE": "APGSPTNLEF", "QUALIFIER SYMBOL": "=", "REPORTED": 6.25}
{"CHAIN SEQUENCE": "KQYIVATLMK", "QUALIFIER SYMBOL": "≤", "REPORTED": 4.16}
{"CHAIN SEQUENCE": "YPTNDIPSLF", "QUALIFIER SYMBOL": "=", "REPORTED": 8.12}
{"CHAIN SEQUENCE": "IPKFKVTGSY", "QUALIFIER SYMBOL": "≤", "REPORTED": 4.16}
{"CHAIN SEQUENCE": "WPNNCGWKIY", "QUALIFIER SYMBOL": "=", "REPORTED": 5.25}
{"CHAIN SEQUENCE": "FPSTQRDYY", "QUALIFIER SYMBOL": "=", "REPORTED": 8.94}

* * *

Target: HLA-A*11:01
Assay: IEDB peptide-MHC binding, purified MHC/competitive/radioactivity; filed as Kd, often an IC50 or EC50 that approximates it; bounds were set here for any values at or beyond the usual limits of such assays
Details: source organism: Vaccinia virus WR
pKd: −log10 of the molar value.
Answer NOT MET if pKd is under 6, and MET if it is 6 or more.

{"CHAIN SEQUENCE": "IFMRDWNSKY", "SYSTEM": "HLA-A*11:01", "CATEGORY LABEL": "NOT MET"}
{"CHAIN SEQUENCE": "LFSTSAADIK", "SYSTEM": "HLA-A*11:01", "CATEGORY LABEL": "NOT MET"}
{"CHAIN SEQUENCE": "FSGKSTELIR", "SYSTEM": "HLA-A*11:01", "CATEGORY LABEL": "NOT MET"}
{"CHAIN SEQUENCE": "VALYRRIQRR", "SYSTEM": "HLA-A*11:01", "CATEGORY LABEL": "NOT MET"}
{"CHAIN SEQUENCE": "KIIETYLGR", "SYSTEM": "HLA-A*11:01", "CATEGORY LABEL": "NOT MET"}
{"CHAIN SEQUENCE": "IAEYIAGLK", "SYSTEM": "HLA-A*11:01", "CATEGORY LABEL": "MET"}
{"CHAIN SEQUENCE": "KFRPGSLIY", "SYSTEM": "HLA-A*11:01", "CATEGORY LABEL": "NOT MET"}
{"CHAIN SEQUENCE": "VTTKDYFSFK", "SYSTEM": "HLA-A*11:01", "CATEGORY LABEL": "MET"}
{"CHAIN SEQUENCE": "RSSPPIPMSR", "SYSTEM": "HLA-A*11:01", "CATEGORY LABEL": "MET"}
{"CHAIN SEQUENCE": "NIKPSKENR", "SYSTEM": "HLA-A*11:01", "CATEGORY LABEL": "NOT MET"}
{"CHAIN SEQUENCE": "YALINLVQYR", "SYSTEM": "HLA-A*11:01", "CATEGORY LABEL": "NOT MET"}
{"CHAIN SEQUENCE": "KSQAKKPEVR", "SYSTEM": "HLA-A*11:01", "CATEGORY LABEL": "NOT MET"}
{"CHAIN SEQUENCE": "NSTCYVFGLY", "SYSTEM": "HLA-A*11:01", "CATEGORY LABEL": "MET"}
{"CHAIN SEQUENCE": "DVSLIIEYK", "SYSTEM": "HLA-A*11:01", "CATEGORY LABEL": "MET"}
{"CHAIN SEQUENCE": "LITLILSNK", "SYSTEM": "HLA-A*11:01", "CATEGORY LABEL": "MET"}
{"CHAIN SEQUENCE": "KMLTFDVFR", "SYSTEM": "HLA-A*11:01", "CATEGORY LABEL": "MET"}
{"CHAIN SEQUENCE": "NSTTDAEACY", "SYSTEM": "HLA-A*11:01", "CATEGORY LABEL": "NOT MET"}
{"CHAIN SEQUENCE": "LVTRKCPQK", "SYSTEM": "HLA-A*11:01", "CATEGORY LABEL": "MET"}
{"CHAIN SEQUENCE": "KSCICYGSY", "SYSTEM": "HLA-A*11:01", "CATEGORY LABEL": "MET"}
{"CHAIN SEQUENCE": "DSEPISILDR", "SYSTEM": "HLA-A*11:01", "CATEGORY LABEL": "NOT MET"}
{"CHAIN SEQUENCE": "SAGAGVLDK", "SYSTEM": "HLA-A*11:01", "CATEGORY LABEL": "MET"}
{"CHAIN SEQUENCE": "LSCIRNASK", "SYSTEM": "HLA-A*11:01", "CATEGORY LABEL": "MET"}
{"CHAIN SEQUENCE": "YLSDSDNIK", "SYSTEM": "HLA-A*11:01", "CATEGORY LABEL": "NOT MET"}
{"CHAIN SEQUENCE": "LSSIKSKSR", "SYSTEM": "HLA-A*11:01", "CATEGORY LABEL": "NOT MET"}
{"CHAIN SEQUENCE": "DMQKFTILEY", "SYSTEM": "HLA-A*11:01", "CATEGORY LABEL": "NOT MET"}
{"CHAIN SEQUENCE": "VMNIERQDY", "SYSTEM": "HLA-A*11:01", "CATEGORY LABEL": "NOT MET"}
{"CHAIN SEQUENCE": "ISELSRLRY", "SYSTEM": "HLA-A*11:01", "CATEGORY LABEL": "NOT MET"}

* * *

Molecular target: HLA-A*02:03
Experiment: IEDB peptide-MHC binding, purified MHC/competitive/radioactivity; filed as Kd, often an IC50 or EC50 that approximates it; bounds were set here for any values at or beyond the usual limits of such assays
Settings: source organism: Vaccinia virus WR
Attribute: Kd
OBSERVABLE: Kd

{"CHAIN SEQUENCE": "IPYLRNYMVI", "SYSTEM": "HLA-A*02:03", "REPORTED": "≥ 70400 nM"}
{"CHAIN SEQUENCE": "KLLYAAEMV", "SYSTEM": "HLA-A*02:03", "REPORTED": "54.3 nM"}
{"CHAIN SEQUENCE": "NIKISLNEIL", "SYSTEM": "HLA-A*02:03", "REPORTED": "1390 nM"}
{"CHAIN SEQUENCE": "SALMTLDDL", "SYSTEM": "HLA-A*02:03", "REPORTED": "707 nM"}
{"CHAIN SEQUENCE": "EVLMSPCRM", "SYSTEM": "HLA-A*02:03", "REPORTED": "651 nM"}
{"CHAIN SEQUENCE": "NTIDKSSPL", "SYSTEM": "HLA-A*02:03", "REPORTED": "27.1 nM"}
{"CHAIN SEQUENCE": "KQNKFGDSPL", "SYSTEM": "HLA-A*02:03", "REPORTED": "216 nM"}
{"CHAIN SEQUENCE": "MAFDISVNA", "SYSTEM": "HLA-A*02:03", "REPORTED": "15.1 nM"}
{"CHAIN SEQUENCE": "TIDAINKCV", "SYSTEM": "HLA-A*02:03", "REPORTED": "634 nM"}
{"CHAIN SEQUENCE": "KQYIVATLMK", "SYSTEM": "HLA-A*02:03", "REPORTED": "9860 nM"}
{"CHAIN SEQUENCE": "KLLNMRDLIV", "SYSTEM": "HLA-A*02:03", "REPORTED": "29.4 nM"}
{"CHAIN SEQUENCE": "IISTDQDTM", "SYSTEM": "HLA-A*02:03", "REPORTED": "≥ 33200 nM"}
{"CHAIN SEQUENCE": "EIVKNIREGT", "SYSTEM": "HLA-A*02:03", "REPORTED": "8530 nM"}
{"CHAIN SEQUENCE": "LINLVQYRIL", "SYSTEM": "HLA-A*02:03", "REPORTED": "2250 nM"}
{"CHAIN SEQUENCE": "HLENDKIEDL", "SYSTEM": "HLA-A*02:03", "REPORTED": "414 nM"}
{"CHAIN SEQUENCE": "DITNILGGV", "SYSTEM": "HLA-A*02:03", "REPORTED": "1640 nM"}
{"CHAIN SEQUENCE": "TTELNIVDEI", "SYSTEM": "HLA-A*02:03", "REPORTED": "≥ 70400 nM"}
{"CHAIN SEQUENCE": "PLKDVERLQM", "SYSTEM": "HLA-A*02:03", "REPORTED": "≥ 44000 nM"}
{"CHAIN SEQUENCE": "YIKDLKHAT", "SYSTEM": "HLA-A*02:03", "REPORTED": "≥ 78100 nM"}
{"CHAIN SEQUENCE": "KAMHDKKIDI", "SYSTEM": "HLA-A*02:03", "REPORTED": "≥ 46200 nM"}
{"CHAIN SEQUENCE": "DVNSVQFSIL", "SYSTEM": "HLA-A*02:03", "REPORTED": "1660 nM"}
{"CHAIN SEQUENCE": "IMTSTRTIIL", "SYSTEM": "HLA-A*02:03", "REPORTED": "52.5 nM"}
{"CHAIN SEQUENCE": "LVIRNEVNDT", "SYSTEM": "HLA-A*02:03", "REPORTED": "15200 nM"}
{"CHAIN SEQUENCE": "PLHIVCSKT", "SYSTEM": "HLA-A*02:03", "REPORTED": "2150 nM"}
{"CHAIN SEQUENCE": "IINSVSIILA", "SYSTEM": "HLA-A*02:03", "REPORTED": "890 nM"}
{"CHAIN SEQUENCE": "VIVVPVIDRL", "SYSTEM": "HLA-A*02:03", "REPORTED": "≥ 59000 nM"}
{"CHAIN SEQUENCE": "IIGHIGHHYI", "SYSTEM": "HLA-A*02:03", "REPORTED": "186 nM"}
{"CHAIN SEQUENCE": "VQLPKRGVRV", "SYSTEM": "HLA-A*02:03", "REPORTED": "2210 nM"}
{"CHAIN SEQUENCE": "PTSETMYLT", "SYSTEM": "HLA-A*02:03", "REPORTED": "3640 nM"}
{"CHAIN SEQUENCE": "DLNIFMTLV", "SYSTEM": "HLA-A*02:03", "REPORTED": "556 nM"}
{"CHAIN SEQUENCE": "LISILMIFI", "SYSTEM": "HLA-A*02:03", "REPORTED": "≥ 5000 nM"}
{"CHAIN SEQUENCE": "WLGAAITLVV", "SYSTEM": "HLA-A*02:03", "REPORTED": "78.4 nM"}
